Entry source: PubChem BioAssay (NCI)

System: RPMI-8226 leukemia
Assay: NCI tumour cell line growth inhibition, 48 h
measured_property: TGI (µM)
Only the number, expressed in µM, is required.

Example entries and their recorded answers appear below.
molecule	experimental_system	TGI / µM
COc1cc2c(cc1OC)[C@@H]1[C@H](C2=O)c2ccc([N+](=O)[O-])cc2C(=O)N1CCCBr	RPMI-8226 leukemia	1.87
O=C1C=Cc2cc3ccccc3c3cccc1c23	RPMI-8226 leukemia	8.5
O=C(CC1Sc2ccccc2NC1=O)Nc1ccc([N+](=O)[O-])cc1[N+](=O)[O-] (stereo unspecified)	RPMI-8226 leukemia	32.3
c1ccc2c(c1)N=c1ccccc1=P21c2ccccc2Nc2ccccc21	RPMI-8226 leukemia	0.616

# ---- query molecule ----
Exam item: State TGI on RPMI-8226 leukemia. Entry: COc1ccc(/C(C#N)=C/c2nc3c(N4CCOCC4)nc(Cl)nc3n2C)cc1OC
Marked response: 0.315
